tested on: SK-MEL-28 melanoma; experiment: NCI-60 one-dose screen, 48 h; conditions: 10 µM unless noted
The panel holds about 83,000 compounds, 20% with a hit somewhere; the sample as a whole holds those more often. Active and inactive are the calls of the source. The calls were made as follows: active = growth percent below 10; inactive = the rest.
Outcome codes: active, inactive

compound=COC(=O)CCC1=C(C)c2cc3[n-]c(cc4nc(cc5[n-]c(cc1n2)c(CCC(=O)OC)c5C)C=C4C)cc3C.[Cd+2] cat=inactive
compound="O=[N+]([O-])CC(O)C(Cl)(Cl)Cl (centres undefined)" cat=inactive
compound=COC(=O)N[C@H]1CCc2c(Br)c(OC)c(OC)c(OC)c2-c2ccc(SC)c(=O)cc21 cat=inactive
compound=COC(=O)[C@@H](C[C@H](Cc1ccccc1)NC(=O)c1csc([C@@H](C[C@H](C(C)C)N(C)C(=O)[C@@H](NC(=O)[C@H]2CCCCN2C)C(C)C)OC(C)=O)n1)NC(=O)OCc1ccccc1 cat=active
